- target under test: T1, human MSLN-R2-his protein (human, UniProt Q13421 391-486)
- T1 construct: it is put last here; also called human MSLN-R2 protein; hMSLN-R2-his; not shown: His tag
- T1 sequence (Q13421 other isoform, or with tags, fused parts or gaps): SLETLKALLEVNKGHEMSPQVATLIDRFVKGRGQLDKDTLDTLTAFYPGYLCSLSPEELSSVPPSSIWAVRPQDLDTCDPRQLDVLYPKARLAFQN
- assay name: ELISA on coated antigen, antibody 0.0002 nM
metric: OD450 (OD)
Answers are plain numbers, in OD.

Exam item: Assign OD450 to the following record: S009-F7.12.13 (antibody, human IgG1, kappa, V domains shown, Human-murine chimeric antibody, human IgG1 heavy and kappa light constant regions) VH: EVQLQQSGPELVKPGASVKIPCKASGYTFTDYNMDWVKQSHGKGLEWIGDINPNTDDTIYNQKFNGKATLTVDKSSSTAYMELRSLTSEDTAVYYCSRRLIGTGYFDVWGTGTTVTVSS VL: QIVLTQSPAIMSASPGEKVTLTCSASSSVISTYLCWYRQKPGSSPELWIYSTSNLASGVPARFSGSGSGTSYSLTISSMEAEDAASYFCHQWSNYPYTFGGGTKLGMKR
Marked response: 0.05

Values compiled from patent US20250250357A1.
